test: Metabolic stability in human liver microsomes assessed as intrinsic clearance at 0.5 uM incubated for 60 mins in presence of NADPH by tandem quadrupole-Time of Flight MS; format: ADME, Microsome; conditions: 1 h
Mark class 1 only for intrinsic clearance (CLint) values smaller than 20 µL/min/mg; exact matches and larger values are class 0.

Request: Is intrinsic clearance (CLint) strictly under 20 µL/min/mg for the entry Cn1nc2c(=O)n(C3CC3)cnc2c1[C@](O)(c1cnc(C(F)(F)F)c(Cl)c1)C1CC1 ?
Result: class 1

From here, focus on the item given below.
Request: intrinsic clearance (CLint) under 20 µL/min/mg? Item: CCn1cc(Cl)c2c(Cc3ccc(N4CCCCC4)nc3)n(C)nc2c1=O
Result: class 0
